Listed here: items and their measured Log MEC.
Test system: rat spleen cells
Type: cell-based
Respond using a number only.

CCCCOc1nc(N)c2[nH]c(=O)n(CCCN(CCCN3CCN(C)CC3)Cc3cccc(CC(=O)OC)c3)c2n1
9.5
CCCCOc1nc(N)c2[nH]c(=O)n(CCCCN(CCCN3CCN(C)CC3)Cc3cccc(CC(=O)OC)c3)c2n1
9.0
CCCCOc1nc(N)c2[nH]c(=O)n(CCCN(CCCNC)Cc3cccc(CC(=O)OC)c3)c2n1
9.5
CCCCOc1nc(N)c2[nH]c(=O)n(CCCN(CCCN(C)C)Cc3cccc(CC(=O)OC)c3)c2n1
9.5

Query :: # input molecule: `CCCCOc1nc(N)c2[nH]c(=O)n(CCCN(CCCN3CCCC3)Cc3cccc(CC(=O)OC)c3)c2n1` ; wanted: its Log MEC
Result :: 9.5

Query :: Sample `CCCCOc1nc(N)c2[nH]c(=O)n(CCCN(CCN(C)C)Cc3cccc(CC(=O)OC)c3)c2n1` — what was its Log MEC?
Result :: 9.5

###

testDescription: Solubility testing
Type: physicochemical
details: aqueous buffer, thermodynamic from solid; 0.1 M phosphate buffer, shaken overnight at 20° C., HPLC/UV; Examples of the invention
Label 1 when solubility is at or above 1000 µg/mL; anything below gets -1.

CCCCOc1nc(N)c2[nH]c(=O)n(CCCN(CCCN3CCCC3)Cc3cccc(CC(=O)OC)c3)c2n1 [Example 2]
1

Query :: API: above_or_equal(metric=solubility, cutoff=1000 µg/mL) for item CCCCOc1nc(N)c2[nH]c(=O)n(CCCN(CCCNC)Cc3cccc(CC(=O)OC)c3)c2n1 [Example 5]
Result :: 1

Query :: Is it the case that CCCCOc1nc(N)c2[nH]c(=O)n(CCCCN(CCCN3CCN(C)CC3)Cc3cccc(CC(=O)OC)c3)c2n1 [Example 6] has solubility reaching or exceeding 1000 µg/mL?
Result :: 1

Query :: Threshold query (solubility >= 1000 µg/mL) on CCCCOc1nc(N)c2[nH]c(=O)n(CCCN(CCCN3CCN(C)CC3)Cc3cccc(CC(=O)OC)c3)c2n1 [Example 3]
Result :: -1

Query :: Check if solubility >= 1000 µg/mL (inclusive). Item: CCCCOc1nc(N)c2[nH]c(=O)n(CCCN(CCN(C)C)Cc3cccc(CC(=O)OC)c3)c2n1 [Example 4]
Result :: -1
